Listing: pKd of selected binders
Molecular target: T1, Human OX40 (Sino Biological Inc) (human, UniProt P43489 29-216, limits assumed)
T1 construct: Bought soluble protein used as SPR analyte; also called huOX40
T1 sequence: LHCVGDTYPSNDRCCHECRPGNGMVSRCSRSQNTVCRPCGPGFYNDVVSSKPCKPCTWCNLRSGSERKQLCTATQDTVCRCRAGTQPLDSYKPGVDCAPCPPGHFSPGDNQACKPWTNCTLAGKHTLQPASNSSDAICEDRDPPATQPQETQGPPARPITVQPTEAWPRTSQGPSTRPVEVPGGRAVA
Assay: SPR (Biacore), antibody captured via anti-human Fc, huOX40 analyte
Description: The binding kinetics of the anti-OX40 antibodies was measured using surface plasmon resonance (SPR) on a Biacore 3000 instrument (GE Healthcare). […] Antibody binding was measured to human OX40 (Sino Biological Inc). […] Sensorgrams for binding of OX40 were recorded using an injection time of 2 minutes with a flow rate of 30 μl/min, at a temperature of 25° C., and with a running buffer of 10 mM HEPES, pH 7.4, 150 mM NaCl, and 0.005% Tween 20. […]
pKd: −log10 of the molar value.

{"binder": "1D2.gr.2 (antibody, V domains shown, human Fc) VH: EVQLVESGPGLVKPSETLSLTCTVSGFSLTDYGVLWIRQPPGKGLEWIGMIWSGGTTDYNAAFISRVTISKDTSKNQVSLKLSSVTAADTAVYYCVREEMDYWGQGTLVTVSS VL: DIQMTQSPSSLSASVGDRVTITCRASQDISNFLNWYQQKPGKAPKLLIYYTSRLHSGVPSRFSGSGSGTDFTLTISSLQPEDFATYYCQQGNTLPWTFGQGTKVEIK", "pKd": 7.25}
{"binder": "3C8.gr.9 (antibody, V domains shown, human Fc) VH: EVQLVQSGAEVKKPGASVKVSCKASGYAFTNYLIEWVRQAPGQGLEWIGVINPGSGDTYYSEKFKGRVTLTRDTSTSTAYLELSSLRSEDTAVYYCARDRLDYWGQGTLVTVSS VL: DIQMTQSPSSLSASVGDRVTITCHASQDISSYIVWYQQKPGKSPKLLIYHGTNLEDGVPSRFSGSGSGTDFTLTISSLQPEDFATYYCVHYAQFPYTFGQGTKVEIK", "pKd": 8.37}
{"binder": "3C8.gr.4 (antibody, V domains shown, human Fc) VH: EVQLVQSGAEVKKPGASVKVSCKASGYAFTNYLIEWVRQAPGQGLEWIGVINPGSGDTYYSEKFKGRVTITADTSTSTAYLELSSLRSEDTAVYYCARDRLDYWGQGTLVTVSS VL: DIQMTQSPSSLSASVGDRVTITCHASQDISSYIVWYQQKPGKSFKGLIYHGTNLEDGVPSRFSGSGSGTDFTLTISSLQPEDFATYYCVHYAQFPYTFGQGTKVEIK", "pKd": 8.66}
